All values here come from PubChem BioAssay.

# ASSAY DETAILS: Cy5 fluorescence interference with SSB-bound oligo, artefact control for HCV NS3 helicase inhibitor project, biochemical, NIH Clinical Collection, E. coli SSB (AID 743268)
MEASURED PARAMETER: fluorescence ratio

COC(=O)Nc1nc2ccc(C(=O)c3ccccc3)cc2[nH]1
1.04
C[C@@H]1O[C@@H](OC[C@H]2O[C@@H](Oc3c(-c4ccc(O)c(O)c4)oc4cc(O)cc(O)c4c3=O)[C@H](O)[C@@H](O)[C@@H]2O)[C@H](O)[C@H](O)[C@H]1O
0.95
OC(CCN1CCCC1)(c1ccccc1)C1CCCCC1 (stereo not given)
1.04
CCCCc1oc2ccccc2c1C(=O)c1cc(I)c(OCCN(CC)CC)c(I)c1
0.96
CC(C)(C)NCC(O)COc1cccc2c1C[C@H](O)[C@H](O)C2 (stereo not given in full)
0.99

###

viability decrease (inhibition) values, listed per item
# ASSAY DETAILS: decreased DLD-1 cellular survival, CellTiter-Glo luminescent readout, NPC compound collection, primary HTS (AID 1117346)
# CONDITION SET: DLD-1 viability, CellTiter-Glo luminescence; at 20 µM (top of the series)
MEASURED PARAMETER: viability decrease (inhibition) (%)

Cc1cccc(OCC(O)CNC(C)(C)C)c1C (stereo unspecified)
8.8
COC(=O)CCC(=O)CN
18.4
CCOC(=O)c1ccc(NC(=O)CN2CCCCC2)cc1
5.8
O=C1CCC(=O)N1CO
-2.7
Cc1cc(O)c(Cl)c(C)c1Cl
-12.3
COC(=O)[C@H]1[C@H]2C[C@@H]3c4[nH]c5cc(OC)ccc5c4CCN3C[C@H]2C[C@@H](OC(=O)/C=C/c2ccc(O)c(OC)c2)[C@@H]1OC
102

###

# ASSAY DETAILS: CellTiter-Glo luminescent readout of SW480 viability loss, NPC library primary (AID 1117343)
# CONDITION SET: CellTiter-Glo luminescence; at 20 µM (top of the series)
viability decrease (inhibition) values, listed per item
MEASURED PARAMETER: viability decrease (inhibition) (%)

CC(=O)OCC(=O)[C@@]1(O)CC[C@H]2[C@@H]3CCC4=CC(=O)CC[C@]4(C)[C@H]3C(=O)C[C@@]21C
-2.6
Fc1ccc(C(c2ccc(F)cc2)N2CCNCC2)cc1
72.4
Cc1noc(NS(=O)(=O)c2ccc(N)cc2)c1C
-27
COc1ccc(C(C#N)C(C)C)cc1OC (configuration not stated)
-4.7
CC(C)C[C@@H]1[C@H](c2ccccc2)OC(=O)N1CCCN1CCCCCC1
19.9
CCN(CC)CCN
1.2
CCc1cc(C(N)=S)ccn1
6.3
CCN(CC)CCSC(=O)C(c1ccccc1)c1ccccc1
5.1
O=C(CCCN1CC=C(n2c(=O)[nH]c3ccccc32)CC1)c1ccc(F)cc1
10.4
CC(C)(C)c1nnc(NS(=O)(=O)c2ccc(N)cc2)s1
54.4
CCCCNC(=O)NS(=O)(=O)c1ccc(C)cc1
-6
O=C(O)CNC(=O)CNC(=O)CNC(=O)CSC(=O)c1ccccc1
12.5

###

# ASSAY DETAILS: LFS_MB_2R medulloblastoma cell growth inhibition, synergistic combos for chromothripsis tumors, cisplatin combos (AID 1671457);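 further: cells exposed to compound for four days before readout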
# CONDITION SET: LFS_MB_2R medulloblastoma cells, measured here: combination with cisplatin, at 5 µM, stronger effect = higher value
inhibition values, listed per item
MEASURED PARAMETER: inhibition (%)

CC(=O)OCC(CCn1cnc2cnc(N)nc21)COC(C)=O
-72.7
CCN(CC)CCCC(C)Nc1c2ccc(Cl)cc2nc2ccc(OC)cc12 (stereo not given)
96.1
O=C(O)CCCc1ccccc1
-56.2
O=C1c2c(O)ccc(O)c2C(=O)c2c(NCCNCCO)ccc(NCCNCCO)c21
92.5
CCn1cc(C(=O)O)c(=O)c2cc(F)c(N3CCNCC3)cc21
-11.8
